Tested on: SK-MEL-5 melanoma
experiment_description: NCI-60 one-dose screen, 48 h (100 = growth as untreated, 0 = no growth, -100 = all killed)
settings: 10 µM unless noted
Description: Growth inhibition of the SK-MEL-5 human tumor cell line is measured as a screen for anti-cancer activity. Cells are grown in 96 well plates and exposed to the test compound for 48 hours. Compounds are tested at a single concentration, which is 10^-5 M for most compounds. The reported endpoint is percent growth (GI% or GIPRCNT), where numbers from 0 - 100% represent growth inhibition, and numbers from -100% - 0 represent cell death. For example, a value of 40 represents 60% growth inhibition. […]
About 83,000 compounds went through this panel and 20% of them were active in at least one assay; those are over-represented in the sample as a whole.
readout_type: growth (%)
Give the value, in units of %, as a plain number.

Consider the worked cases shown below.
INPUT: Returns the measured growth for the input molecule. Input: CC(C)c1cc(C(=O)O)c(O)c(C(C)C)c1.CC(C)c1cc(C(=O)O)c(O)c(C(C)C)c1.[Mn]
OUTPUT: 94.3

INPUT: And N#C/C(=C\c1ccc(-c2ccc(Br)cc2)o1)c1nc(-c2cccs2)cs1 ?
OUTPUT: 99.6

INPUT: And CC[C@H](CC[C@@H](C)[C@H]1CC[C@H]2[C@@H]3/C(=C/c4cccnc4)C(=O)C4=CC(=O)CC[C@]4(C)[C@H]3CC[C@]12C)C(C)C ?
OUTPUT: 79.8

Please examine the following record next.
INPUT: Returns the measured growth for the input molecule. Input: Cc1cc(N2CCN(C)CC2)nc(N(CCNc2ccnc3cc(Cl)ccc23)Cc2ccco2)n1
OUTPUT: -82

###

System: NCI/ADR-RES ovarian
experiment_description: NCI-60 one-dose screen, 48 h (100 = growth as untreated, 0 = no growth, -100 = all killed)
settings: 10 µM unless noted
About 83,000 compounds went through this panel and 20% of them were active in at least one assay; those are over-represented in the sample as a whole.
Reported growth is given for each of the following compounds.
Give the value, in units of %, as a plain number.

Consider the worked cases shown below.
INPUT: Returns the measured growth for the input compound. Input: C/C(=C(/c1ccccc1)c1ccc(N2C(=O)c3cccc4c(NCc5ccccc5)ccc(c34)C2=O)cc1)c1ccccc1
OUTPUT: 97.9

INPUT: And O=C(O[C@@H]1Cc2c(O)cc(O)cc2O[C@@H]1c1cc(O)c(O)c(O)c1)c1cc(O)c2c(c1)OCO2 ?
OUTPUT: 97.5

INPUT: And Cn1cnc2c1c(=O)n(CCC(=O)Nc1ccc(F)cc1)c(=O)n2C ?
OUTPUT: 109

INPUT: And COc1cc(-c2cc(-c3nc4cc(Cl)c(Cl)cc4[nH]3)[nH]n2)cc(OC)c1OC ?
OUTPUT: 39.1

INPUT: And CN(C)c1ccc(N)c2ccccc12 ?
OUTPUT: 77.2

INPUT: And COc1cc2ncnc(Nc3ccc(Oc4ccnc(C)c4)c(C)c3)c2cc1NC(=O)CC1CCSS1 (configuration not stated) ?
OUTPUT: 31.9

Others:
INPUT: Returns the measured growth for the input compound. Input: O=C(O)/C(=C/c1ccc(O)cc1)c1ccccc1
OUTPUT: 94.6

INPUT: And O=c1c(CNc2ccc(S(=O)(=O)Nc3nccs3)cc2)coc2ccccc12 ?
OUTPUT: 102

INPUT: And CCOC(=O)c1ccc2c(c1)[n+](=O)c(C(=O)C1CCCS1)c(C(F)(F)F)n2[O-] (configuration not stated) ?
OUTPUT: -70.4

INPUT: And Cc1cc2nc3c4cc([N+](=O)[O-])cc([N+](=O)[O-])c4n(CCN(C)C)c3nc2cc1C ?
OUTPUT: 57.8

INPUT: And COc1ccc(-c2cc(/C=C/C(=O)c3ccc(OC)c(OC)c3)[nH]n2)cc1 ?
OUTPUT: -0.366

###

Tested on: HOP-62 NSCLC
experiment_description: NCI-60 one-dose screen, 48 h (100 = growth as untreated, 0 = no growth, -100 = all killed)
settings: 10 µM unless noted
This is part of a sample that, as a whole, favours compounds with a hit. Of some 83,000 tested, about 20% had one in any assay.
Reported growth is given for each of the following compounds.
Give the value, in units of %, as a plain number.

Consider the worked cases shown below.
INPUT: Returns the measured growth for the input compound. Input: COC(=O)[C@]12CC[C@@H](C(=O)/C=C/c3cccnc3)[C@@H]1[C@H]1CC[C@@H]3[C@@]4(C)C/C(=C/c5cccnc5)C(=O)C(C)(C)[C@@H]4CC[C@@]3(C)[C@]1(C)CC2
OUTPUT: -85.6

INPUT: And Nc1c(Cl)cc(N=Nc2ccccc2)cc1Cl ?
OUTPUT: 91.4

INPUT: And COc1ccc(/C=C(\C#N)c2cc3ccccc3n2S(C)(=O)=O)cc1 ?
OUTPUT: 91.5

INPUT: And O=C1c2cc3c(cc2-c2c1c1ccc(F)cc1c(=O)n2CCCN1CCOCC1)OCO3 ?
OUTPUT: 18.9

INPUT: And COc1ccc(CCN2C(=O)C(C)(C)SC2=S)cc1OC ?
OUTPUT: 103

INPUT: And COc1ccc(C(=O)c2cc(OC)c(OC)c(OC)c2)cc1/C=C/C(=O)c1cc(OC)c(OC)c(OC)c1 ?
OUTPUT: 117

INPUT: And CC(Cc1ccco1)C(=O)NC(N)=O (stereo not given) ?
OUTPUT: 106

INPUT: And COc1cc2[nH]c(C(=O)c3cc(OC)c(OC)c(OC)c3)c(N)c2cc1C#CC1CC1 ?
OUTPUT: 42.1

Others:
INPUT: Returns the measured growth for the input compound. Input: C/C(=N/NC(N)=S)C(=O)O
OUTPUT: 107

INPUT: And Cn1cc(-c2csc(-c3cn(CCCN4CCCCC4)c4ccc(F)cc34)n2)c2cccnc21 ?
OUTPUT: 99.3

INPUT: And CN1CCN(c2nc(-c3csc(-c4cccs4)n3)cc3ccccc23)CC1 ?
OUTPUT: 68.3

INPUT: And COc1cc2c3c(c4c5ccccc5[nH]c4c2c(OC)c1OC)C(=O)N(O)C3=O ?
OUTPUT: 38

INPUT: And COC(=O)[C@]12CC[C@@H](C(/C=C/c3cccnc3)=N/O)[C@@H]1[C@H]1CC[C@@H]3[C@@]4(C)CC(=C/c5cccnc5)/C(=N/O)C(C)(C)[C@@H]4CC[C@@]3(C)[C@]1(C)CC2 ?
OUTPUT: 60

###

Test system: CAKI-1 renal
experiment_description: NCI-60 one-dose screen, 48 h
settings: 10 µM unless noted
This is part of a sample that, as a whole, favours compounds with a hit. Of some 83,000 tested, about 20% had one in any assay. Calls of active or inactive are those of the source. Rule for the calls: active = growth percent below 10; inactive = the rest.
Thanks in advance; please answer with one of these: TRUE (active), FALSE (inactive)

INPUT: State the result this test recorded for CC/C(=N/NC(N)=O)c1ccccc1 .
OUTPUT: FALSE

INPUT: And O=S(=O)(NCCNc1cc(-c2cn(-c3ccccc3)nc2-c2cccc(O)c2)ccn1)c1ccc(Cl)cc1 ?
OUTPUT: FALSE

INPUT: And Cc1ccc(NC2CC(=O)N(c3c(C)cc(C)cc3C)C2=O)c(C)c1 (configuration not stated) ?
OUTPUT: FALSE

###

Reported growth is given for each of the following compounds.
Tested on: SF-539 CNS
experiment_description: NCI-60 one-dose screen, 48 h (100 = growth as untreated, 0 = no growth, -100 = all killed)
settings: 10 µM unless noted
The panel holds about 83,000 compounds, 20% with a hit somewhere; the sample as a whole holds those more often.
Give the value, in units of %, as a plain number.

Consider the worked cases shown below.
INPUT: Returns the measured growth for the input compound. Input: COc1ccc2c(c1)C/C(=C\c1cc(-c3cc(OC)c(OC)c(OC)c3)n[nH]1)C2=O
OUTPUT: 89.5

INPUT: And CC(=O)OCCCCCCn1c2ccccc2c2c3c(c4c5ccccc5n(C)c4c21)C(=O)N(O)C3=O ?
OUTPUT: 94.3

Others:
INPUT: Returns the measured growth for the input compound. Input: Cc1cc(N(CCCNc2ccnc3cc(Cl)ccc23)Cc2ccco2)nc(N2CCOCC2)n1
OUTPUT: 51.1

INPUT: And C=C(C)[C@@H]1CC[C@]2(C(=O)N3CCCNCC3)CC[C@]3(C)[C@H](CC[C@@H]4[C@@]5(C)CCC(=O)C(C)(C)[C@@H]5CC[C@]43C)[C@@H]12 ?
OUTPUT: 99.9

INPUT: And COc1cc(C(=O)/C=C/c2cc(-c3ccc4c(c3)OCO4)n[nH]2)cc(OC)c1OC ?
OUTPUT: -51.9

###

Tested on: EKVX NSCLC
experiment_description: NCI-60 one-dose screen, 48 h
settings: 10 µM unless noted
Experimental: Growth inhibition of the EKVX human Non-Small Cell Lung tumor cell line is measured as a screen for anti-cancer activity. Cells are grown in 96 well plates and exposed to the test compound for 48 hours. Compounds are tested at a single concentration, which is 10^-5 M for most compounds. The reported endpoint is percent growth (GI% or GIPRCNT), where numbers from 0 - 100% represent growth inhibition, and numbers from -100% - 0 represent cell death. […]
Compounds without any hit were thinned out: in the full panel of roughly 83,000, 20% have a hit. Activity calls are given as the source filed them. The calls were made as follows: active = growth percent below 10; inactive = the rest.
Thanks in advance; please answer with one of these: yes (1) = active, no (0) = inactive

INPUT: State the result this test recorded for O=P(O)(c1ccccc1)c1ccccc1I .
OUTPUT: no (0)

Others:
INPUT: State the result this test recorded for CC1=NN(c2ccc(S(=O)(=O)O)cc2Cl)C(=O)C1 .
OUTPUT: no (0)

INPUT: And C#Cc1cccc(NC(=O)C2CCCN(C(=O)CCl)C2)c1 (configuration not stated) ?
OUTPUT: no (0)
